Just for reference, patent US6784201B2 is where these values come from.

molecular target: human IBAT (Homo sapiens, UniProt Q12908); construct: expressed in transfected cells; host or cells: Baby hamster kidney (BHK) cells, clone H14; test: In vitro assay of IBAT-mediated uptake of [14C]-taurocholate (TC) in H14 cells; format: cell-based; conditions: read-out: Human TC IC50
Sequence (Q12908 whole entry): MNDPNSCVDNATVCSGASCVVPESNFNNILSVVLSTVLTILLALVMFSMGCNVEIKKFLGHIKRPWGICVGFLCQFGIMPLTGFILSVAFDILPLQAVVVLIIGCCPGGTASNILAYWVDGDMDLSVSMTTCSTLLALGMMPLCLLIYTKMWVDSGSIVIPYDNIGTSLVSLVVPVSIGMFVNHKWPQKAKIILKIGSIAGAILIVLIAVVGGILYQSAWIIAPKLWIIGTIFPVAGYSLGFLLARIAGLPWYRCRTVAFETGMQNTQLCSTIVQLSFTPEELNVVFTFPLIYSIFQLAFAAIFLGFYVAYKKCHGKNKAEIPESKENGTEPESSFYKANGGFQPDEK
ENDPOINT: IC50 (µM)

Recorded results for 5 compounds are shown here.
- COMPOUND: "CCCCC1(CCCC)CS(=O)(=O)c2ccc(N(C)C)cc2C(c2ccc(OC(=O)C(OC)(c3ccccc3)C(F)(F)F)cc2)C1O (centres unmarked) [Example 1306]"
  EXPERIMENTAL RESULT: 1.2
- COMPOUND: "CCCCC1(CCCC)CS(=O)(=O)c2ccc(N(C)C)cc2C(c2cccc(OCCOCCOCC[n+]3ccc(C(C)C)cc3)c2)C1O (centres unmarked) [Example 1026]"
  EXPERIMENTAL RESULT: 0.002
- COMPOUND: "CCCCC1(CCCC)CS(=O)(=O)c2c(cccc2N(C)C)C(c2ccsc2)C1O (single isomer, unassigned) [Example 1232]"
  EXPERIMENTAL RESULT: 1.2
- COMPOUND: "CCCCC1(CCCC)CS(=O)(=O)c2ccc(N(C)C)cc2C(c2cccc(OCCOCCOCC[n+]3cccc(C(=O)OC)c3)c2)C1O (centres unmarked) [Example 1094]"
  EXPERIMENTAL RESULT: 0.006
- COMPOUND: "CCCCC1(CCCC)CS(=O)(=O)c2ccc(N(C)C)cc2C(c2ccc(OCCC[N+](CCCC)(CCCC)CCCC)cc2)C1O (centres unmarked) [Example 1352]"
  EXPERIMENTAL RESULT: 0.1

P = CCCCC1(CCCC)CS(=O)(=O)c2ccc(N(C)C)cc2C(c2cccc(OCCOCCOCC[n+]3cc4ccccn4c3)c2)C1O (centres unmarked) [Example 1030]
Q = CCCCC1(CCCC)CS(=O)(=O)c2ccc(N(C)C)cc2C(c2ccc(O)c(F)c2)C1O (centres unmarked) [Example 1128]
R = CCCCC1(CCCC)CS(=O)(=O)c2ccc(N(C)C)cc2C(c2ccc(OCCC[N+](CC)(CC)CC)cc2)C1O (centres unmarked) [Example 1252]
S = CCCCC1(CCCC)CS(=O)(=O)c2ccc(N(C)C)cc2C(c2ccc(OC)c(F)c2)C1O (centres unmarked) [Example 1010]
Challenge: Order field: IC50 | Direction: descending (largest first) Order the labels as requested and give them as your answer.
Response given: R, Q, P, S
(R: 29 µM, Q: 0.017 µM, P: 0.002 µM, S: 0.001 µM)

I = CCCCC1(CCCC)CS(=O)(=O)c2ccc(N(CC)CC)cc2C(c2ccc(F)cc2)C1O (centres unmarked) [Example 1160]
II = CCCCC1(CCCC)CS(=O)(=O)c2ccc(N(C)C)cc2C(c2cccc(OCCOCCOCC[N+]3(CCOc4ccc(Br)cc4)CCCC3)c2)C1O (centres unmarked) [Example 1288]
Challenge: Lowest IC50? choose I or II Identify your selection by its label.
Response given: II
(II: 0.013 µM, I: 0.062 µM)

1 = CCCCC1(CCCC)CS(=O)(=O)c2ccc(N(C)C)cc2C(c2cccc(OCCOCCOCC[N+](C)(C)CC(=O)O)c2)C1O (centres unmarked) [Example 1016]
2 = CCCCC1(CC)CS(=O)(=O)c2ccc(N)cc2C(c2ccccc2)C1O (single isomer, unassigned) [Example 122]
3 = CCCCC1(CC)CS(=O)(=O)c2ccc(O)cc2C(c2cccc(O)c2)C1O (centres unmarked) [Example 266]
Challenge: Order field: IC50 | Direction: descending (largest first) Order the labels as requested and give them as your answer.
Response given: 2, 3, 1
(2: 1.07 µM, 3: 0.5 µM, 1: 0.002 µM)

* * *

target: human IBAT (Homo sapiens, UniProt Q12908); construct: expressed in transfected cells; host or cells: Baby hamster kidney (BHK) cells, clone H14; experiment: In vitro assay of IBAT-mediated uptake of [14C]-taurocholate (TC) in H14 cells; assay type: cell-based; conditions: read-out: Human TC IC50
pIC50: −log10 of the molar value.
ENDPOINT: pIC50

Recorded results for 5 molecules are shown here.
- MOLECULE: "CCCCC1(CC)CS(=O)(=O)c2ccc(SC)cc2C(c2ccc(F)cc2)C1O (stereo not drawn)"
  TESTED ON: "human IBAT (Homo sapiens, UniProt Q12908)"
  ENDPOINT: "pIC50"
  EXPERIMENTAL RESULT: 7.72
- MOLECULE: "CCCCC1(CCCC)CS(=O)(=O)c2ccc(N(C)C)cc2C(c2cccc(OCCOCCOCC[N+]3(CCO)CCOCC3)c2)C1O (stereo not drawn)"
  TESTED ON: "human IBAT (Homo sapiens, UniProt Q12908)"
  ENDPOINT: "pIC50"
  EXPERIMENTAL RESULT: 8.70
- MOLECULE: "CCCCC1(CC)CS(=O)(=O)c2ccc(N(C)C)cc2C(c2cccc(OCCOCCOCCI)c2)C1O (stereo not drawn)"
  TESTED ON: "human IBAT (Homo sapiens, UniProt Q12908)"
  ENDPOINT: "pIC50"
  EXPERIMENTAL RESULT: 7.89
- MOLECULE: "CCCCC1(CCCC)CS(=O)(=O)c2ccc(N(C)C)cc2C(c2cccc(OCCOCCOCC[P+](CC)(CC)CC)c2)C1O (stereo not drawn)"
  TESTED ON: "human IBAT (Homo sapiens, UniProt Q12908)"
  ENDPOINT: "pIC50"
  EXPERIMENTAL RESULT: 8.10
- MOLECULE: "C=C(C)C(=O)OCC[N+](CC)(CC)CCOCCOCCOc1cccc(C2c3cc(N(C)C)ccc3S(=O)(=O)CC(CCCC)(CCCC)C2O)c1 (stereo not drawn) [Example 1375]"
  TESTED ON: "human IBAT (Homo sapiens, UniProt Q12908)"
  ENDPOINT: "pIC50"
  EXPERIMENTAL RESULT: 8.70

I = CCCCC1(CCCC)CS(=O)(=O)c2ccc(C)cc2C(c2ccc(F)cc2)C1O (stereo not drawn) [Example 1187]
II = CCCCC1(CC)CS(=O)(=O)c2ccc(N(C)C)cc2C(c2cccc(OCCOCCOCC[N+](C)(C)CCCCCC[N+](C)(C)CCOCCOCCOc3cccc(C4c5cc(N(C)C)ccc5S(=O)(=O)CC(CC)(CCCC)C4O)c3)c2)C1O (stereo not drawn)
Challenge: Lowest pIC50? choose I or II Identify your selection by its label.
Response given: I

* * *

Below, each entry is listed with its recorded melting point.

Challenge: Consider the compound shown here: `CCCCC1(CCCC)CS(=O)(=O)c2ccc(N(C)C)cc2[C@@H](c2cccc(NC(=O)OCCC[N+]34CCN(CC3)CC4)c2)[C@H]1O.[Cl-]` What is its recorded melting point?
Response given: 218 to 225 °C

Challenge: Then this compound: CCCCC1(CCCC)CS(=O)(=O)c2ccc(N(C)C)cc2[C@@H](c2ccc(OCc3cccc(CCC(=O)O)n3)cc2)[C@H]1O [Example 1430]
Response given: 105 to 107 °C

Challenge: Then this compound: CCCCC1(CCCC)CS(=O)(=O)c2ccc(N(C)C)cc2[C@@H](c2ccc(OCCOCCC(C(=O)O)C(=O)O)cc2)[C@H]1O [Example 1432]
Response given: 119.5 °C

Challenge: Then this compound: CCCCC1(CCCC)CS(=O)(=O)c2ccc(N(C)C)cc2[C@@H](c2ccc(OCCCCCc3nn[nH]n3)cc2)[C@H]1O [Example 1420]
Response given: 80 to 85 °C

Challenge: Then this compound: CCCCC1(CCCC)CS(=O)(=O)c2ccc(N(C)C)cc2[C@@H](c2ccc(OCCCCCNC(=N)N)cc2)[C@H]1O [Example 1422]
Response given: 67 to 72.5 °C

Challenge: Then this compound: CC1(C)CS(=O)(=O)c2ccc(N)cc2[C@@H](c2ccccc2)[C@H]1O [Example 288]
Response given: 185 to 186 °C

Challenge: Then this compound: CCC1(CC)CS(=O)(=O)c2ccc(NC(=O)OCc3ccccc3)cc2[C@@H](c2ccccc2)[C@H]1O [Example 286]
Response given: 180 to 181 °C

* * *

biological target: human IBAT (Homo sapiens, UniProt Q12908); construct: expressed in transfected cells; host or cells: Baby hamster kidney (BHK) cells, clone H14; assay: In vitro assay of IBAT-mediated uptake of [14C]-taurocholate (TC) in H14 cells; type: cell-based; details: read-out: Human TC IC50
pIC50: −log10 of the molar value.
ENDPOINT: pIC50

a = CCCCC1(CCCC)CS(=O)(=O)c2ccc(N(C)C)cc2C(c2cccc(OCCOCCOCC[N+]3(C)CCN(P(C)(=O)c4ccccc4)CC3)c2)C1O (stereo not shown)
b = CCCCC1(CC)CS(=O)(=O)c2ccc(NO)cc2C(c2ccccc2)C1O (single isomer, unassigned) [Example 1311]
c = CCCCC1(CCCC)CS(=O)(=O)c2ccc(N(C)CC)cc2C(c2ccc(F)cc2)C1O (stereo not shown)
d = CCCCCCNc1ccc2c(c1)C(c1ccccc1)C(O)C(CC)(CCCC)CS2(=O)=O (stereo not shown)
Challenge: Re-order the entries listed above so their pIC50 values fall from first to last. Order the labels as requested and give them as your answer.
Response given: a, c, d, b
(a: 8.52, c: 7.64, d: 5.78, b: 5.49)
